molecular target: Bcl-2-like protein 1 (Homo sapiens); experiment: Inhibition of BCL-XL (unknown origin) incubated for 1 hr by TR-FRET assay
Sequence (Q07817 whole entry): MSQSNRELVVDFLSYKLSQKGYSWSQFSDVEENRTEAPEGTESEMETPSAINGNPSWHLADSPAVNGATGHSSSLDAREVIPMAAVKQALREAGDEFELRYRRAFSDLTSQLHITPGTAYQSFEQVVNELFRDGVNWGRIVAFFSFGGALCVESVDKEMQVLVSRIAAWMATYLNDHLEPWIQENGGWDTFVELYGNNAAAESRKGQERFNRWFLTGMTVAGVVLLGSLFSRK
outcome-measure: Ki (nM)

[[record]]
mol = "CN(C)CC#Cc1cc(F)c(OCCCc2sc(N3CCc4cccc(C(=O)Nc5nc6ccccc6s5)c4C3)nc2C(=O)O)cc1F"
measured_result = 0.03


[1] O=C(Nc1nc2ccccc2s1)c1cccc2c1CN(c1nc(C(=O)O)c(CCOc3ccc(-n4ncc5cncnc54)cc3)s1)CC2
[2] O=C(Nc1nc2ccccc2s1)c1cccc2c1CN(c1nc(C(=O)O)c(CCOc3cccc(-n4ncc5cncnc54)c3)s1)CC2
[ask] Pick one: 1 or 2 . Which has the bigger Ki number? Could you answer with the label of the item you picked?
[reply] 1

----------
Apoptosis regulator Bcl-2 (Homo sapiens): reported Ki for various compounds.
Sequence (P10415 whole entry): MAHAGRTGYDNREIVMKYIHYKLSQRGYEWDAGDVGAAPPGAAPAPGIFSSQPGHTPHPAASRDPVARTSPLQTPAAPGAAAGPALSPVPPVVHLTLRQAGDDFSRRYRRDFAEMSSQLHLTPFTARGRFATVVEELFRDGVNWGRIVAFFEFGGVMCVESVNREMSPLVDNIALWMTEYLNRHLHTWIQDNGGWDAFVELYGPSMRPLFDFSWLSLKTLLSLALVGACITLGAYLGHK
outcome-measure: Ki (nM)

[[record]]
mol = "CN(C)CC#Cc1ccc(OCCCc2sc(N3CCc4cccc(C(=O)Nc5nc6ccccc6s5)c4C3)nc2C(=O)O)c(Cl)c1"
outcome_measure = "Ki"
u = "nM"
measured_result = 280

[[record]]
mol = "O=C(Nc1nc2ccccc2s1)c1cccc2c1CN(c1nc(C(=O)O)c(CCCOc3ccc(-n4cccn4)cc3)s1)CC2"
outcome_measure = "Ki"
u = "nM"
measured_result = 150

[[record]]
mol = "CN(C)CC#Cc1cc(F)c(OCCCc2sc(N3CCc4cccc(C(=O)Nc5nc6ccccc6s5)c4C3)nc2C(=O)O)cc1F"
outcome_measure = "Ki"
u = "nM"
measured_result = 90

[[record]]
mol = "CN(C)CC#Cc1ccc(OCCCc2sc(N3CCc4cccc(C(=O)Nc5nc6ccccc6s5)c4C3)nc2C(=O)O)cc1F"
outcome_measure = "Ki"
u = "nM"
measured_result = 88


[A] O=C(Nc1nc2ccccc2s1)c1cccc2c1CN(c1nc(C(=O)O)c(CCOc3ccc(-n4ncc5cncnc54)cc3)s1)CC2
[B] O=C(Nc1nc2ccccc2s1)c1cccc2c1CN(c1nc(C(=O)O)c(CCCOc3ccc(-n4ncc5cncnc54)cc3)s1)CC2
[ask] Hi, I'm comparing A with B and wondering which one has the bigger number for Ki. Any idea? Your answer should be the label attached to the chosen record.
[reply] B
(B: 170 nM, A: 90 nM)

----------
test: Cytotoxicity against BCL-XL-dependent human NCI-H146 cells in presence of 10% human serum
outcome-measure: EC50 (µM)
Enter your answer as a number in µM; do not include the unit.

For `NCc1ccc(OCCCc2sc(-c3ccc4c(c3)/C(=N/Nc3nc5ccccc5s3)CCC4)nc2C(=O)O)cc1` the compound record lists EC50 as 0.55

----------
biological target: Induced myeloid leukemia cell differentiation protein Mcl-1 (Homo sapiens, UniProt Q07820); test: Binding affinity to MCL1 (unknown origin)
Sequence (Q07820 whole entry): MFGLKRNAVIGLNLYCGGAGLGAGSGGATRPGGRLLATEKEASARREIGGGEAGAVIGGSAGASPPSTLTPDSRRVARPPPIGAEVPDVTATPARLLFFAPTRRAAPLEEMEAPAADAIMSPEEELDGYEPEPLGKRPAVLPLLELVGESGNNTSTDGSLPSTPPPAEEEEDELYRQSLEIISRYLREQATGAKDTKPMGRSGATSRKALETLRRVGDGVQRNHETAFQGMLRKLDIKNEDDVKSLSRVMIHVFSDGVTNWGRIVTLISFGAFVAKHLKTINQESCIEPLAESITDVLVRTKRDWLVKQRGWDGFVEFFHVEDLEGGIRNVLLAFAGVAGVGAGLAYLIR
outcome-measure: Ki

Value of measured Ki for the entry CN(C)CC#Cc1ccc(OCCCc2sc(N3CCc4cccc(C(=O)Nc5nc6ccccc6s5)c4C3)nc2C(=O)O)c(F)c1 [A-1155463] : > 440 nM

----------
molecular target: Bcl-2-like protein 1 (Homo sapiens); assay: Inhibition of BCL-XL (unknown origin) incubated for 1 hr by TR-FRET assay
outcome-measure: Ki (pM)

[P] CN(C)CC#Cc1ccc(OCCCc2sc(N3CCc4cccc(C(=O)Nc5nc6ccccc6s5)c4C3)nc2C(=O)O)cc1
[Q] O=C(Nc1nc2ccccc2s1)c1cccc2c1CN(c1nc(C(=O)O)c(CCCOc3cccc(-n4ncc5cncnc54)c3)s1)CC2
[ask] // compare measured Ki between P and Q ; output the lower one Your answer should be the label of the entry you select.
[reply] P
(P: 20 pM, Q: 340 pM)

[a] CN(C)CC#Cc1ccc(OCCCc2sc(N3CCc4cccc(C(=O)Nc5nc6ccccc6s5)c4C3)nc2C(=O)O)cc1F
[b] O=C(Nc1nc2ccccc2s1)c1cccc2c1CN(c1nc(C(=O)O)c(CCCOc3ccc(-n4ncc5cncnc54)cc3)s1)CC2
[ask] Which gives the smaller Ki number: a or b ? Indicate which entry you chose by stating its label.
[reply] a
